- MEASURED ON: UniProt Q9NWZ3
- Sequence (Q9NWZ3 whole entry): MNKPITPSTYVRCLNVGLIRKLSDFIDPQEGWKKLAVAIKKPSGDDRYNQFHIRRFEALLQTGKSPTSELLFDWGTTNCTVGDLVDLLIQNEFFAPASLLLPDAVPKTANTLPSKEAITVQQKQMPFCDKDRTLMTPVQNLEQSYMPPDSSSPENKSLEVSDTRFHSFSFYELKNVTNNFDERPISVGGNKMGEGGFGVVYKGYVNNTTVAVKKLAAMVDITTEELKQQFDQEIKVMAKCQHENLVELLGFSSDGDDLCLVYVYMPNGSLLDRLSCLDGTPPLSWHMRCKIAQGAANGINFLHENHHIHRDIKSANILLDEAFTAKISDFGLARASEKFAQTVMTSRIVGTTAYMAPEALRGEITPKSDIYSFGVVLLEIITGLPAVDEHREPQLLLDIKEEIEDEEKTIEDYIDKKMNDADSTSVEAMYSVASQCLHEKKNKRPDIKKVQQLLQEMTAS
- TEST PROTOCOL: biochemical
pIC50: −log10 of the molar value.
Classification field: enter yes (1) for pIC50 values not below 8, no (0) for values below it.

MOLECULE | MEASURED ON | ASSIGNED CLASS
COc1cc2nc(C3CCOCC3)cn2cc1C(=O)Nc1ccn(CCF)n1 [Example 190] | UniProt Q9NWZ3 | no (0)
COc1cccc(NC(=O)c2cn3cc(C4C5COCC54)nc3cc2OC)n1 (stereo not drawn) [Example 22] | UniProt Q9NWZ3 | no (0)
COc1cc2nc(C3CCOCC3)cn2cc1C(=O)Nc1ccn(C2CCCC2)n1 [Example 191] | UniProt Q9NWZ3 | no (0)
COc1cc2nc(C3CCOCC3)cn2cc1C(=O)Nc1cccnc1OC [Example 193] | UniProt Q9NWZ3 | yes (1)
COc1cnc2c(NC(=O)c3cn4cc(C56COC(C)(C5)C6)nc4c(F)c3OC(C)C)cnn2c1 [Example 407] | UniProt Q9NWZ3 | yes (1)
CCc1c(NC(=O)c2cn3cc(C4CCOCC4)nc3cc2OC)cnn1C [Example 199] | UniProt Q9NWZ3 | no (0)
Cn1cccc(NC(=O)c2cn3cc(C45CCC(C)(C4)OC5)nc3cc2OC2CCC2)c1=O (stereo not drawn) [Example 422] | UniProt Q9NWZ3 | yes (1)

Taken from patent US20230087118A1.
